test: Solubility of A9 stock; assay type: physicochemical; settings: organic solvent or mixture; in ethanol, methylene chloride, or DMSO; read-out: Solubility of stock
endpoint_label: solubility

- compound: "CC(C)(C)c1cc(C=C(C#N)C#N)cc(C(C)(C)C)c1O [A9, tyrphostin A9]"
  value_observed: "≤ 25 mg/mL"
